Biological target: PptT (Mycobacterium tuberculosis)
Sequence (O33336 1-227): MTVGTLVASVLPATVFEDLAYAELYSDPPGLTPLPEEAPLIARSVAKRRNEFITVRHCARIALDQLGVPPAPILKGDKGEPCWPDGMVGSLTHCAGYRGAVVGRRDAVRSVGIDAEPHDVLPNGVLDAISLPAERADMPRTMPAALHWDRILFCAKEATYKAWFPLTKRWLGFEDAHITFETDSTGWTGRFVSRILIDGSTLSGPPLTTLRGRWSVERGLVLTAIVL
attribute_measured: Kd (nM)
Give the quantity in nM, number only.

Req: Could you please provide reported Kd for `CC(C)(COP(=O)(O)OP(=O)(O)OC[C@H]1O[C@@H](n2cnc3c(N)ncnc32)[C@H](O)[C@@H]1OP(=O)(O)O)[C@@H](O)C(=O)NCCC(=O)NCCS` ? Thanks!
Resp: 36
